# Test system: Escherichia coli TOP10;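 further: peptides expressed intracellularly from a pBAD plasmid library in pooled LB shake-flask culture, induced with 0.3% L-arabinose, DNA abundance read by NGS, three biological replicates, DESeq2 with apeglm shrinkage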
# test-summary: shrunken log2 fold change of peptide-encoding DNA abundance (4.5 h post-induction vs induction); higher = less antimicrobial activity (less host growth inhibition)
# condition-context: time post-induction: 4.5 h; library: site-saturation at positions 5, 18, 19, 20
Output: class label from shrunken log2 fold change. Mapping: band 1: < -0.2; band 2: ≥ -0.2 and < 0.08; band 3: ≥ 0.08

INSERT INTO assay_data (seq_string, label_class) VALUES
  ('RRIRCRPPRLPRPRPRPNNEPRP', 'band 1'),
  ('RRIRCRPPRLPRPRPRPSTCPRP', 'band 1'),
  ('RRIRERPPRLPRPRPRPCYVPRP', 'band 1'),
  ('RRIRPRPPRLPRPRPRPPVNPRP', 'band 3'),
  ('RRIRRRPPRLPRPRPRPQGPPRP', 'band 3'),
  ('RRIRARPPRLPRPRPRPSLHPRP', 'band 3'),
  ('RRIRARPPRLPRPRPRPQETPRP', 'band 2'),
  ('RRIRQRPPRLPRPRPRPQASPRP', 'band 2'),
  ('RRIRNRPPRLPRPRPRPKSHPRP', 'band 1'),
  ('RRIRPRPPRLPRPRPRPVSKPRP', 'band 2'),
  ('RRIRLRPPRLPRPRPRPMLPPRP', 'band 2'),
  ('RRIRMRPPRLPRPRPRPIHEPRP', 'band 1'),
  ('RRIRSRPPRLPRPRPRPDTKPRP', 'band 1'),
  ('RRIRQRPPRLPRPRPRPNWSPRP', 'band 3'),
  ('RRIRQRPPRLPRPRPRPLMFPRP', 'band 2'),
  ('RRIRCRPPRLPRPRPRPVNPPRP', 'band 2'),
  ('RRIRQRPPRLPRPRPRPLEYPRP', 'band 2'),
  ('RRIRGRPPRLPRPRPRPGQTPRP', 'band 3'),
  ('RRIRARPPRLPRPRPRPFCRPRP', 'band 3'),
  ('RRIRVRPPRLPRPRPRPTMYPRP', 'band 1'),
  ('RRIRWRPPRLPRPRPRPTAIPRP', 'band 3'),
  ('RRIRPRPPRLPRPRPRPMIWPRP', 'band 2'),
  ('RRIRNRPPRLPRPRPRPHFYPRP', 'band 1'),
  ('RRIRDRPPRLPRPRPRPPNKPRP', 'band 2'),
  ('RRIRYRPPRLPRPRPRPWSPPRP', 'band 1'),
  ('RRIRMRPPRLPRPRPRPIFYPRP', 'band 2'),
  ('RRIRGRPPRLPRPRPRPFIFPRP', 'band 3'),
  ('RRIRYRPPRLPRPRPRPRMSPRP', 'band 3'),
  ('RRIRFRPPRLPRPRPRPPASPRP', 'band 3'),
  ('RRIRPRPPRLPRPRPRPNHFPRP', 'band 1'),
  ('RRIRLRPPRLPRPRPRPIYEPRP', 'band 1'),
  ('RRIRHRPPRLPRPRPRPREDPRP', 'band 2'),
  ('RRIRDRPPRLPRPRPRPWVGPRP', 'band 2'),
  ('RRIRKRPPRLPRPRPRPEEPPRP', 'band 3'),
  ('RRIRGRPPRLPRPRPRPVCNPRP', 'band 3'),
  ('RRIRARPPRLPRPRPRPSPRPRP', 'band 3'),
  ('RRIRLRPPRLPRPRPRPQMHPRP', 'band 1'),
  ('RRIRERPPRLPRPRPRPGGFPRP', 'band 3'),
  ('RRIRYRPPRLPRPRPRPGQNPRP', 'band 2'),
  ('RRIRWRPPRLPRPRPRPWFLPRP', 'band 1'),
  ('RRIRVRPPRLPRPRPRPPKHPRP', 'band 2'),
  ('RRIRRRPPRLPRPRPRPHISPRP', 'band 2'),
  ('RRIRIRPPRLPRPRPRPLLHPRP', 'band 1'),
  ('RRIRTRPPRLPRPRPRPVNKPRP', 'band 2'),
  ('RRIRSRPPRLPRPRPRPHVDPRP', 'band 2'),
  ('RRIRKRPPRLPRPRPRPGGYPRP', 'band 3'),
  ('RRIRTRPPRLPRPRPRPNKYPRP', 'band 1'),
  ('RRIRERPPRLPRPRPRPEWIPRP', 'band 2'),
  ('RRIRERPPRLPRPRPRPKKFPRP', 'band 1'),
  ('RRIRFRPPRLPRPRPRPHPSPRP', 'band 2'),
  ('RRIRQRPPRLPRPRPRPQLCPRP', 'band 2'),
  ('RRIRARPPRLPRPRPRPKDSPRP', 'band 3'),
  ('RRIRWRPPRLPRPRPRPCLGPRP', 'band 2'),
  ('RRIRFRPPRLPRPRPRPFEMPRP', 'band 2'),
  ('RRIRLRPPRLPRPRPRPTHMPRP', 'band 3'),
  ('RRIRTRPPRLPRPRPRPPREPRP', 'band 3'),
  ('RRIRVRPPRLPRPRPRPKRRPRP', 'band 2'),
  ('RRIRDRPPRLPRPRPRPVWPPRP', 'band 3'),
  ('RRIRQRPPRLPRPRPRPKIFPRP', 'band 2');
